# Tested System: CYP2C9 (Homo sapiens)
# Sequence (P11712 whole entry): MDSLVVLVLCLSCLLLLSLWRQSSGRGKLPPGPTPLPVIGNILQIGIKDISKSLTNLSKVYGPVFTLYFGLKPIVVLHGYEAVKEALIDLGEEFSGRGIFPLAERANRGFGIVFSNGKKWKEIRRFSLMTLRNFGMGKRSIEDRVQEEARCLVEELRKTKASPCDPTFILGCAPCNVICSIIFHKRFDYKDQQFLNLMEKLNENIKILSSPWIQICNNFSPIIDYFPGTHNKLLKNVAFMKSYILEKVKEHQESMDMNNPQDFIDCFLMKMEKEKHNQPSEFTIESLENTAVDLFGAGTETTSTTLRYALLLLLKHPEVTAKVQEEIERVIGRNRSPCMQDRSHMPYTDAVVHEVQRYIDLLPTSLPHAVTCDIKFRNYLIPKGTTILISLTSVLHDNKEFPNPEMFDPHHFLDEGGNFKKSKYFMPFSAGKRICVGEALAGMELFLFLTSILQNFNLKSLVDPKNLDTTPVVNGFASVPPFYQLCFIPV
Measurement Name: IC50 (nM)
// return numeric value only (unit: nM, not printed)

Reported IC50 for Clc1ccc(COC(Cn2ccnc2)c2ccc(Cl)cc2Cl)c(Cl)c1 (stereo not shown) : what is it?
380

====

# Method Summary: Pharmacokinetics in fasted Wistar rats
# Type: in vivo
# Measurement Setup: male, Wistar (RccHan:WIST), rat, plasma, po, 10 mg/kg
Measurement Name: Cmax (µM)
// return numeric value only (unit: µM, not printed)

Reported Cmax for Clc1ccc(Nc2nc3ccccc3c3[nH]c(C4CCC=CCC4)nc23)cc1Cl [Compound 18] : what is it?
4.2

====

# Method Summary: pION aqueous solubility pH 7.4
# Assay type: physicochemical
# Measurement Setup: pION buffer
Measurement Name: solubility at 18 h

Reported solubility at 18 h for Clc1ccc(Nc2nc3ccccc3c3[nH]c(C4CCC=CCC4)nc23)cc1Cl : what is it?
0.92 µM
